Where do these numbers come from? They come from the supplement of paper PMC7877785.

# procedure_text: self-splicing fitness, log relative to wild type (ln ratio); higher = more splicing; Tetrahymena group I intron in knt gene, E. coli kanamycin selection, DiMSum; sequences stand for … in CUCUCU…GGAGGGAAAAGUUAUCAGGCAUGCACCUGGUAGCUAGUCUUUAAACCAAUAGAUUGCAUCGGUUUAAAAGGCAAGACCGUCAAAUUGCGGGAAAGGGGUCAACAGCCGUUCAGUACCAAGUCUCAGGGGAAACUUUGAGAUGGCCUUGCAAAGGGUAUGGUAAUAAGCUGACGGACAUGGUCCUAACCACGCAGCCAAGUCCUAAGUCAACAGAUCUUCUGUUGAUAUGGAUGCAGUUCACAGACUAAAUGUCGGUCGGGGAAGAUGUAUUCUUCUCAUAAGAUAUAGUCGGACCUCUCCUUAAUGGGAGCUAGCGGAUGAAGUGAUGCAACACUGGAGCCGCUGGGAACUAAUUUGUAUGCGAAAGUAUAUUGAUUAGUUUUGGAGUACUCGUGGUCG;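 note: selection with 25 µg/mL kanamycin versus none on LB agar overnight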
# conditions_used: 37 °C
observed_property: self-splicing fitness (ln)
Answers are plain numbers.

Use the examples below as a reference point.
residue_sequence	readout_number
AUUUAGCAAUAUUACGAUUG	-2.05
CAUGAGCAAUAUUACGGGCC	-1.98

The measured self-splicing fitness (ln) associated with "CCACAGCAAUAUUACGUCUG" reads -1.98
